Recorded GI50 by entry
Tested on: OVCAR-3
protocol description: NCI tumour cell line growth inhibition, 48 h
The source made the active and inactive calls. Rule as the data show it: active = GI50 up to about 1.1 µM and inactive = higher.

{"compound": "O=[PH](O)c1cc2c3ccccc3ccc2c2ccccc12", "system name": "OVCAR-3", "GI50": "> 100 µM (inactive)"}
{"compound": "CNC1=C/C(=N/C2=CC(=N/C(=C\\C#N)C(C)(C)O)/OC2(C)C)OC1(C)C", "system name": "OVCAR-3", "GI50": "32.4 µM (inactive)"}
{"compound": "C=CCc1c(O)c2c(c3oc(=O)cc(C)c13)CC(C)O2 (stereo unspecified)", "system name": "OVCAR-3", "GI50": "> 100 µM (inactive)"}
{"compound": "Cn1c(=O)[nH]c2nccnc2c1=O", "system name": "OVCAR-3", "GI50": "> 10 µM (inactive)"}
{"compound": "COc1ccc(OC)c(/C=N/N=C2\\C(=O)Nc3c(Cl)cc(Cl)cc32)c1", "system name": "OVCAR-3", "GI50": "70.3 µM (inactive)"}
{"compound": "CC(C)CSCC1OC(n2cnc3c(N)nccc32)C(O)C1O (stereo unspecified)", "system name": "OVCAR-3", "GI50": "> 100 µM (inactive)"}
{"compound": "NC1=NN(c2ccccc2)C(=O)C1/C(=N\\NC(=O)c1cc2ccccc2cc1O)C(=O)Nc1nc([N+](=O)[O-])cs1 (stereo unspecified)", "system name": "OVCAR-3", "GI50": "30.1 µM (inactive)"}
{"compound": "C[C@H]1CC[P+](Cc2ccccc2)(c2ccccc2)C1 (stereo partly specified)", "system name": "OVCAR-3", "GI50": "41.2 µM (inactive)"}
{"compound": "CC[P+]1(c2ccccc2)[C@@H](C)CC[C@@H]1C", "system name": "OVCAR-3", "GI50": "84.1 µM (inactive)"}
{"compound": "O=C(O)COc1cccc2ccccc(=O)c12", "system name": "OVCAR-3", "GI50": "> 100 µM (inactive)"}
{"compound": "COc1ccc2c3c1OC1C(=O)C=CC4(CC2)N(C)CCC314 (stereo unspecified)", "system name": "OVCAR-3", "GI50": "19.4 µM (inactive)"}

Values compiled from ChEMBL document CHEMBL1201862.
